The entries below come with measured melting point values attached.

// known answers, use as guide
# compound, melting point
measured = [
    ("CCOc1cc(OCCCc2cn(-c3ccc(C(F)(F)F)cn3)nc2O)ccc1CCC(=O)O", "192 to 194 °C"),
    ("COc1cc(N)ccc1-c1ccc(-c2ccc(N)cc2OC)o1", "201 to 202 °C"),
    ("CC(=O)Oc1ccccc1C(=O)N1CC(O)C[C@H]1C(=O)O (stereo partly specified)", "175 °C"),
]

Given the entry O=C(NCc1ccc(F)cc1)c1ccnc(N2CCN(Cc3ccccn3)C2=O)c1 , report its measured melting point.
141 to 142 °C

Given the entry COc1ccc(CONS(C)(=O)=O)cc1 , report its measured melting point.
114 to 116 °C

Given the entry COc1cc2ncc(C#N)c(Oc3cccc(Br)c3)c2cc1OC , report its measured melting point.
187 to 190 °C

Given the entry COC(=O)C(=O)c1ccc(OCCCCSc2ccc3ccccc3c2)cc1 , report its measured melting point.
64 to 65 °C

Given the entry O=C1N(Cc2ncccc2Cl)c2ccccc2C12COc1cc3c(cc12)OCCO3 (stereo unspecified) , report its measured melting point.
176 to 178 °C

Given the entry CCS(=O)(=O)NC1CCCOc2ccccc21 (stereo unspecified) , report its measured melting point.
109 to 111 °C

Given the entry CCOC1=NCCNC(c2ccccc2)=C1 , report its measured melting point.
89 to 93.5 °C

Given the entry CC(C(=O)O)c1ccc(-c2ccc(Cl)cc2F)c(O)c1 (stereo unspecified) , report its measured melting point.
145 to 149 °C
